Known pEC50 of a selection of binders
assay_target: human CD96v2 expressed on cells (human) (UniProt P40200)
method_summary: flow cytometry, CHO cells expressing human CD96v2
Formally, pEC50 is defined as -log10 of the concentration c, with c in mol/L.

Below, each entry is followed by its recorded pEC50 result.
binder	pEC50
42Y073-86F04-6 (antibody, V domains shown) VH: QVQLVQSGAEVKKPGSSVKVSCKASGGTFSGHAISWVRQAPGQGLEWMGGIIPIFGRARYAQKFQGRVTITADESTSTAYMELSSLRSEDTAVYYCARLLGESGMDVWGQGTTVTVSS VL: DIQMTQSPSSLSASVGDRVTITCRASQSISSYLNWYQQKPGKAPKLLIYAASSLQSGVPSRFSGSGSGTDFTLTISSLQPEDFATYYCQQPYFSPPTFGGGTKVEIK	10.22
42Y073-86F08-3 (antibody, V domains shown) VH: QVQLVQSGAEVKKPGSSVKVSCKASGGTFVNYAISWVRQAPGQGLEWMGGIIPALGTANYAQKFQGRVTITADESTSTAYMELSSLRSEDTAVYYCARGAGYYGDKDPMDVWGQGTTVTVSS VL: DIQLTQSPSSLSASVGDRVTITCRASQSISSYLNWYQQKPGKAPKLLIYAASSLQSGVPSRFSGSGSGTDFTLTISSLQPEDFATYYCQQVLHTITFGGGTKVEIK	10.40

// next entry
I have this binder here, 42Y073-86F04-3 (antibody, V domains shown) VH: QVQLVQSGAEVKKPGSSVKVSCKASGGTFSYNAISWVRQAPGQGLEWMGGIIPIMGTARYAQKFQGRVTITADESTSTAYMELSSLRSEDTAVYYCARLLGESGMDVWGQGTTVTVSS VL: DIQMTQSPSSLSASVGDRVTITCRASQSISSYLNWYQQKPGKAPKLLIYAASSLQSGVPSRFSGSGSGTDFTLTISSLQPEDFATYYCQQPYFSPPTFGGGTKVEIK , and I need its recorded pEC50.
10.40
